TARGET_SYSTEM: Prostaglandin E2 receptor EP4 subtype (Homo sapiens, UniProt P35408)
Sequence (P35408 whole entry): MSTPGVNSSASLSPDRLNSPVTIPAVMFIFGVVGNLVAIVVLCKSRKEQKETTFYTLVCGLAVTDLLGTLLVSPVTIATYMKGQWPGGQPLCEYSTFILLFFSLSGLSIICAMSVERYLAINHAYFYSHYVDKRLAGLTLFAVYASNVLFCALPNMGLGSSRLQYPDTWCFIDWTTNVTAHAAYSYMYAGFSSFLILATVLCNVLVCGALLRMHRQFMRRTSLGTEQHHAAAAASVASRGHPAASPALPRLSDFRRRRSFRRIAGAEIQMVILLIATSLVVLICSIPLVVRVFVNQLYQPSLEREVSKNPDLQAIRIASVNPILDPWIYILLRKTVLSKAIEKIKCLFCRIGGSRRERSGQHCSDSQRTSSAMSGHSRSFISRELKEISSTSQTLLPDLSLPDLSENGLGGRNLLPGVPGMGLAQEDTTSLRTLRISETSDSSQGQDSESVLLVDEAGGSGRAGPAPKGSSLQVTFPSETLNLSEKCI
ASSAY_PROCEDURE: cAMP Assay: A 384-well drug plate was prepared to contain 6 test compounds, PGE2 and cAMP in 16 serial dilutions in triplicate, using a Biomek station. HEK-EBNA cells expressing a target PG receptor subtype (EP2 or EP4) were suspended in a stimulation buffer (HBSS, 0.1% BSA, 0.5 mM IBMX and 5 mM HEPES, pH 7.4) in a density of 10^4 cells/5 microliters. The reaction was initiated by mixing 5 microliters drug dilutions with 5 microliters of HEK-EBNA cells in a well, carried out for 30 min at room temperature, and followed by the addition of 5 microliters anti-cAMP acceptor beads in the control buffer with Tween-20 (25 mM NaCl, 0.03% Tween-20, 5 mM HEPES, pH 7.4). After 30 min in the dark at room temperature, the mixtures were incubated with 15 microliters biotinylated-cAMP/streptavidin donor beads in Lysis/Detection buffer (0.1% BSA, 0.3% Tween-20 and 5 mM HEPES, pH 7.4) for 45 min at room temperature. Fluorescence changes were read using a Fusion-alpha microplate reader.
MEASURED_ATTRIBUTE: Ki
Include the unit after the number when you answer.

*Q* Which value of Ki has been reported for Cc1cc(Cl)ccc1-c1cc(C(O)/C=C/[C@H]2CCC(=O)N2CCCc2ccc(C(=O)O)cc2)ccc1F (single isomer, unassigned) in the records?
*A* 1.08 µM
